# Test system: Key Broadleaf Weed and Crop Species
# TEST_METHOD_NOTES: Post-emergent Test II herbicidal activity (Table 15)
# Format: in vivo
# MEASUREMENT_CONDITIONS: Chenopodium album, post-emergence, 336 h, lambsquarters (Chenopodium album), 140 g ai/ha, 14 d, read-out: Visual Growth Reduction (%) 14 Days After Application, CHEAL
The entries below are paired with their reported pest or weed control at 140 g/ha.

{"SMI": "COC(=O)c1nc(-c2ccc3c(cnn3C)c2)c(F)c(N)c1Cl", "pest or weed control at 140 g/ha": "95 to 100%"}

Q: Item Nc1c(Cl)c(C(=O)O)nc(-c2ccc3ccsc3c2)c1Cl with Key Broadleaf Weed and Crop Species - pest or weed control at 140 g/ha?
Result: 85 to 94%

Q: Item COC(=O)c1nc(-c2cc3occc3cc2F)c(F)c(N)c1Cl with Key Broadleaf Weed and Crop Species - pest or weed control at 140 g/ha?
Result: 85 to 94%

Q: Item COC(=O)c1nc(-c2ccc3cc[nH]c3c2F)c(Cl)c(N)c1Cl with Key Broadleaf Weed and Crop Species - pest or weed control at 140 g/ha?
Result: 85 to 94%

Q: Item Cc1c(-c2ccc3ccsc3c2)nc(C(=O)O)c(Cl)c1N with Key Broadleaf Weed and Crop Species - pest or weed control at 140 g/ha?
Result: 75 to 84%

Q: Item COC(=O)c1nc(-c2ccc(Cl)c3[nH]ccc23)nc(N)c1OC with Key Broadleaf Weed and Crop Species - pest or weed control at 140 g/ha?
Result: 0 to 29%

====

The entries below are paired with their reported melting point.

Examples with answers:
{"SMI": "Nc1c(F)c(-c2ccc3[nH]ccc3c2)nc(C(=O)O)c1Cl", "melting point": "180 to 182 °C"}
{"SMI": "COc1c(N)nc(-c2ccc3sccc3c2)nc1C(=O)O", "melting point": "137 to 139 °C"}
{"SMI": "Cn1ncc2cc(-c3nc(C(=O)O)c(Cl)c(N)c3F)ccc21", "melting point": "186 to 188 °C"}
{"SMI": "COC(=O)c1nc(-c2ccc3occc3c2)c(F)c(N)c1Cl", "melting point": "114 to 117 °C"}

Q: Please give the measured melting point for this compound: COC(=O)c1nc(-c2cc3occc3cc2F)cc(N)c1Cl
Result: 130 °C

====

# Tested on: Key Grass and Sedge Weeds as well as Grass Crops
# TEST_METHOD_NOTES: Post-emergent Test II herbicidal activity (Table 16)
# Assay type: in vivo
# MEASUREMENT_CONDITIONS: Zea mays, post-emergence, 336 h, maize, corn (Zea mays), 35 g ai/ha, 14 d, read-out: Visual Growth Reduction (%) 14 Days After Application, ZEAMX
The entries below are paired with their reported pest or weed control at 35 g/ha.

Examples with answers:
{"SMI": "COC(=O)c1nc(-c2ccc3cc[nH]c3c2F)c(F)c(N)c1Cl", "TESTED_SYSTEM": "Key Grass and Sedge Weeds as well as Grass Crops", "pest or weed control at 35 g/ha": "0 to 29%"}
{"SMI": "COC(=O)c1nc(-c2ccc3cc[nH]c3c2F)cc(N)c1Cl", "TESTED_SYSTEM": "Key Grass and Sedge Weeds as well as Grass Crops", "pest or weed control at 35 g/ha": "0 to 29%"}
{"SMI": "COC(=O)c1nc(-c2cc3occc3cc2F)nc(N)c1OC", "TESTED_SYSTEM": "Key Grass and Sedge Weeds as well as Grass Crops", "pest or weed control at 35 g/ha": "0 to 29%"}
{"SMI": "COC(=O)c1nc(-c2ccc3cc[nH]c3c2F)c(Cl)c(N)c1Cl", "TESTED_SYSTEM": "Key Grass and Sedge Weeds as well as Grass Crops", "pest or weed control at 35 g/ha": "0 to 29%"}
{"SMI": "COC(=O)c1nc(-c2ccc3ccn([Si](C(C)C)(C(C)C)C(C)C)c3c2F)c(F)c(N)c1Cl", "TESTED_SYSTEM": "Key Grass and Sedge Weeds as well as Grass Crops", "pest or weed control at 35 g/ha": "0 to 29%"}
{"SMI": "COC(=O)c1nc(-c2cccc3cc[nH]c23)c(F)c(N)c1Cl", "TESTED_SYSTEM": "Key Grass and Sedge Weeds as well as Grass Crops", "pest or weed control at 35 g/ha": "0 to 29%"}
{"SMI": "COC(=O)c1nc(-c2ccc3ccoc3c2F)c(F)c(N)c1Cl", "TESTED_SYSTEM": "Key Grass and Sedge Weeds as well as Grass Crops", "pest or weed control at 35 g/ha": "45 to 59%"}
{"SMI": "COC(=O)c1nc(-c2ccc3occc3c2)cc(N)c1Cl", "TESTED_SYSTEM": "Key Grass and Sedge Weeds as well as Grass Crops", "pest or weed control at 35 g/ha": "0 to 29%"}

Consider the additional molecule presented here.
Q: Please give the measured pest or weed control at 35 g/ha for this molecule: COC(=O)c1nc(-c2ccc3c(ccn3C)c2)c(F)c(N)c1Cl
Result: 0 to 29%

====

# Tested on: Key Broadleaf Weed and Crop Species
# TEST_METHOD_NOTES: Post-emergent Test II herbicidal activity (Table 15)
# Assay type: in vivo
# MEASUREMENT_CONDITIONS: Brassica napus, post-emergence, 336 h, oilseed rape, canola (Brassica napus), 140 g ai/ha, 14 d, read-out: Visual Growth Reduction (%) 14 Days After Application, BRSNN
The entries below are paired with their reported pest or weed control at 140 g/ha.

Examples with answers:
{"SMI": "Nc1c(F)c(-c2cccc3cc[nH]c23)nc(C(=O)O)c1Cl", "pest or weed control at 140 g/ha": "0 to 29%"}
{"SMI": "COC(=O)c1nc(-c2cc3sccc3cc2F)cc(N)c1Cl", "pest or weed control at 140 g/ha": "60 to 74%"}
{"SMI": "Nc1nc(-c2ccc(Cl)c3occc23)nc(C(=O)O)c1Cl", "pest or weed control at 140 g/ha": "0 to 29%"}

Q: Please give the measured pest or weed control at 140 g/ha for this molecule: Nc1c(F)c(-c2ccc3occc3c2)nc(C(=O)O)c1Cl
Result: 30 to 44%

Q: Please give the measured pest or weed control at 140 g/ha for this molecule: COC(=O)c1nc(-c2ccc(Cl)c3occc23)cc(N)c1Cl
Result: 60 to 74%

====

# Test system: Key Grass and Sedge Weeds as well as Grass Crops
# TEST_METHOD_NOTES: Post-emergent Test II herbicidal activity (Table 16)
# Format: in vivo
# MEASUREMENT_CONDITIONS: Zea mays, post-emergence, 336 h, maize, corn (Zea mays), 35 g ai/ha, 14 d, read-out: Visual Growth Reduction (%) 14 Days After Application, ZEAMX
MEASURED_QUANTITY: pest or weed control at 35 g/ha

{"COMPOUND": "Nc1c(F)c(-c2ccc3ccoc3c2)nc(C(=O)O)c1Cl [Compound 2.08]", "pest or weed control at 35 g/ha": "45 to 59%"}

Q: Please give the measured pest or weed control at 35 g/ha for this compound: COC(=O)c1nc(-c2ccc(Cl)c3occc23)nc(N)c1Cl [Compound 2.20]
Result: 0 to 29%

Q: Please give the measured pest or weed control at 35 g/ha for this compound: Cc1c(-c2ccc3cc[nH]c3c2)nc(C(=O)O)c(Cl)c1N [Compound 1.29]
Result: 0 to 29%

====

The entries below are paired with their reported melting point.

Examples with answers:
{"SMI": "COC(=O)c1nc(-c2cc3sccc3cc2F)cc(N)c1Cl", "ENDPOINT_RESULT": "70 °C"}
{"SMI": "Nc1c(F)c(-c2ccc3cn[nH]c3c2)nc(C(=O)O)c1Cl", "ENDPOINT_RESULT": "> 300 °C"}
{"SMI": "COC(=O)c1nc(-c2ccc(Cl)c3[nH]ccc23)cc(N)c1Cl", "ENDPOINT_RESULT": "116 °C"}

Q: Please give the measured melting point for this compound: Nc1cc(-c2ccc3cc[nH]c3c2)nc(C(=O)O)c1Cl
Result: 172 to 174 °C

Q: Please give the measured melting point for this compound: Cc1c(-c2ccc3sccc3c2)nc(C(=O)O)c(Cl)c1N
Result: 159 to 165 °C

Q: Please give the measured melting point for this compound: COC(=O)c1nc(-c2ccc3ccoc3c2F)nc(N)c1OC
Result: 178 °C

Q: Please give the measured melting point for this compound: COC(=O)c1nc(-c2ccc3sccc3c2)c(C)c(N)c1Cl
Result: 155 to 159 °C

Q: Please give the measured melting point for this compound: COC(=O)c1nc(-c2cccc3[nH]ncc23)c(F)c(N)c1Cl
Result: 212 to 215 °C

Q: Please give the measured melting point for this compound: COC(=O)c1nc(-c2ccc3cc[nH]c3c2)cc(N)c1Cl
Result: 83 to 85 °C

Q: Please give the measured melting point for this compound: COC(=O)c1nc(-c2cccc3[nH]ccc23)c(F)c(N)c1Cl
Result: 233 to 236 °C

Q: Please give the measured melting point for this compound: Nc1c(Cl)c(C(=O)O)nc(-c2ccc3cc[nH]c3c2)c1Cl
Result: 160 to 164 °C
